Biological target: T1, TNFR1 (Homo sapiens, UniProt P19438)
T1 chain: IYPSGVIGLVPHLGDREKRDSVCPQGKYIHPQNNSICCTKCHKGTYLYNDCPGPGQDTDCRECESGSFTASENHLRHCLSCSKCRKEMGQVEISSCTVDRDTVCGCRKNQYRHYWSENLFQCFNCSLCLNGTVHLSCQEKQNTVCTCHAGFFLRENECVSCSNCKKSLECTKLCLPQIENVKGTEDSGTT
Test: yeast display SC50
Test Readout: apparent Kd (screen) (nM)

# Binder, Unit Abbreviation, Result Value
data = [
    ("K17Q (designed binder) SMEEEVEKAAKEYEKKQKEAIEKHLEKLKAKDKEAAERFLKELEEAAKEYAKDEAKTMSEEEAKRRAKKYKEKVLLSELSEEEQKEIKEAEEKLVRTILKYVEEAAK", "nM", 1.16),
]

I: K18R (designed binder) SMEEEVEKAAKEYEKKKREAIEKHLEKLKAKDKEAAERFLKELEEAAKEYAKDEAKTMSEEEAKRRAKKYKEKVLLSELSEEEQKEIKEAEEKLVRTILKYVEEAAK
II: L75P (designed binder) SMEEEVEKAAKEYEKKKKEAIEKHLEKLKAKDKEAAERFLKELEEAAKEYAKDEAKTMSEEEAKRRAKKYKEKVPLSELSEEEQKEIKEAEEKLVRTILKYVEEAAK
III: E92M (designed binder) SMEEEVEKAAKEYEKKKKEAIEKHLEKLKAKDKEAAERFLKELEEAAKEYAKDEAKTMSEEEAKRRAKKYKEKVLLSELSEEEQKEIKEAEMKLVRTILKYVEEAAK
Task: I would appreciate it if you could sort these 3 binders by apparent Kd (screen), starting from the smallest number. Returns: the labels listed in the requested order.
Result: I, II, III
